measured.target: TGR5 (Homo sapiens, UniProt Q8TDU6)
Sequence (Q8TDU6 whole entry): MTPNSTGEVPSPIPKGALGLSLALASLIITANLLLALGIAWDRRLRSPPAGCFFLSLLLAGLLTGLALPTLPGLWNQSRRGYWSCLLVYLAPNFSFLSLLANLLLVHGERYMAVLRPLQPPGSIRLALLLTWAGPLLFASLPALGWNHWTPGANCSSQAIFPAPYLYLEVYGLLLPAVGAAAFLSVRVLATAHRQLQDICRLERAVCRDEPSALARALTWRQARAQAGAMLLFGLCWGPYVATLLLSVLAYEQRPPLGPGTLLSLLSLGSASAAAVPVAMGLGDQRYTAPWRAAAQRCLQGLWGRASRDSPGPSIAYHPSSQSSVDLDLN
measurement.notes: TGR5 luciferase reporter (pCRE-luc) / cAMP assay in HEK293 cells overexpressing TGR5
condition.summary: unpublished data; read-out: TGR5 agonist EC50
test.readout: pEC50
pEC50 is defined as minus the log10 of a concentration measured in mol/L.

Given COc1ccc2cc3[n+](cc2c1OC)CCc1cc2c(cc1-3)OCO2 [berberine] , state its recorded pEC50.
6.34
